Listing: Duration of local anesthesia of selected molecules
Tested on: male SD rats
Assay: Subcutaneous infiltration anesthesia in rats (acupuncture stimulation of back skin)
Assay type: in vivo, rat
Settings: 0.5%, 0.4 mL subcutaneous, rat back

Guide cases for Duration of local anesthesia, answers given:
CCCCCOC(=O)Oc1cc(C)c(NC(=O)C[N+](CC)(CC)CC)c(C)c1 : 36 to 48 h
CCCCCN(C)CC(=O)Oc1cc(C)c(NC(=O)C[N+](CC)(CC)CC)c(C)c1 : 54 to 72 h
CC[N+](CC)(CC)CC(=O)Nc1c(C)cc(OC(=O)OCCCN2CCCCC2C(=O)Nc2c(C)cccc2C)cc1C (stereo not drawn) : 60 to 78 h
CC[N+](CC)(CCO)CC(=O)Nc1c(C)cc(OCCCCN2CCCCC2C(=O)Nc2c(C)cccc2C)cc1C (stereo not drawn) : 48 to 54 h
CC[N+](CC)(CC)CC(=O)Nc1c(C)cc(O)cc1C : 10 to 12 h

Then there is this molecule:
Req: Given `CC[N+](CC)(CC)CC(=O)Nc1c(C)cc(N)cc1C` , state its recorded Duration of local anesthesia.
Resp: 2 to 4 h

Provenance of the data: patent US20230183169A1
